Tested on: Cryptococcus neoformans
ASSAY_PROTOCOL: Antimicrobial activity against Cryptococcus neoformans after 72 hrs by microbroth dilution method
Assay type: functional
ENDPOINT: MIC

CC(C)CCO[C@@H]1C=CC(=O)[C@@H](Cn2cc(C3CC3)nn2)O1    25 µg/mL
CC(C)CCO[C@@H]1C=CC(=O)[C@@H](Cn2cc(-c3ccccc3)nn2)O1    25 µg/mL
CCCCCCCCc1cn(C[C@H]2O[C@H](OCCC(C)C)C=C[C@@H]2O)nn1    25 µg/mL
CC(C)CCO[C@@H]1C=CC(=O)[C@@H](Cn2cc(CCn3cc(C4CC4)nn3)nn2)O1    50 µg/mL

Q: I am curious: what MIC value has been reported for `CC(C)CCO[C@@H]1C=CC(=O)[C@@H](Cn2cc(CCCN3C(=O)c4ccccc4C3=O)nn2)O1` ?
Ans: 50 µg/mL

###

Tested on: Escherichia coli
ASSAY_PROTOCOL: Antimicrobial activity against Escherichia coli ATCC 9637 after 24 hrs by microbroth dilution method
Type: functional
TEST_CONDITIONS: ATCC 9637, 24 h
ENDPOINT: MIC (µg/mL)
Value expressed in µg/mL; do not type the unit.

Q: Item: `CC(C)CCO[C@@H]1C=CC(=O)[C@@H](Cn2cc(COCC34CC5CC(CC(C5)C3)C4)nn2)O1` Test system: Escherichia coli Read-out: MIC Value: ?
Ans: 50

Q: Missing value: MIC, Escherichia coli, entry `CC(C)CCO[C@@H]1C=CC(=O)[C@@H](Cn2cc(C3CCCC3)nn2)O1` . Fill in?
Ans: 50

Q: Give Escherichia coli MIC for `CN[C@H](CC(C)C)C(=O)N[C@H]1C(=O)N[C@@H](CC(N)=O)C(=O)N[C@H]2C(=O)N[C@H]3C(=O)N[C@H](C(=O)N[C@H](C(=O)O)c4cc(O)cc(O)c4-c4cc3ccc4O)[C@H](O)c3ccc(c(Cl)c3)Oc3cc2cc(c3O[C@@H]2O[C@H](CO)[C@@H](O)[C@H](O)[C@H]2O[C@H]2C[C@](C)(N)[C@H](O)[C@H](C)O2)Oc2ccc(cc2Cl)[C@H]1O`
Ans: 12.5

Q: I'm curious: which MIC was measured for `CC(C)CCO[C@@H]1C=CC(=O)[C@@H](Cn2cc(CCCCOC(=O)C(C)(C)C)nn2)O1` tested on Escherichia coli?
Ans: 50

Q: Find MIC (Escherichia coli) for the entry `CC(C)CCO[C@@H]1C=CC(=O)[C@@H](Cn2cc(C=O)nn2)O1`
Ans: 50

###

Let's look at some compounds and their measured MIC.
System: Cryptococcus neoformans
ASSAY_PROTOCOL: Antimicrobial activity against Cryptococcus neoformans after 72 hrs by microbroth dilution method
Type: functional
Return type: number; implicit unit µg/mL.

Consider the following illustrative entries.
CC(C)CCO[C@@H]1C=CC(=O)[C@@H](Cn2cc(CCCCOC(=O)C(C)(C)C)nn2)O1    50
CC(C)CCO[C@@H]1C=CC(=O)[C@@H](Cn2cc(-c3ccc(F)cc3)nn2)O1    50

Q: Suppose we examine the compound `CCCCO[C@@H]1C=CC(=O)[C@@H](Cn2cc(CCCCl)nn2)O1` ; what MIC value has been reported?
Ans: 50

###

Test system: Klebsiella pneumoniae
ASSAY_PROTOCOL: Antimicrobial activity against Klebsiella pneumoniae ATCC 27736 after 24 hrs by microbroth dilution method
Format: functional
TEST_CONDITIONS: ATCC 27736, 24 h
Measured MIC of individual entries
Form entry: value (µg/mL) — number only.

Before answering, review these 5 worked examples.
CC1(C)S[C@@H]2[C@H](NC(=O)[C@H](N)c3ccccc3)C(=O)N2[C@H]1C(=O)O [AMPICILLIN]    12.5
O=C(O)c1cn(C2CC2)c2cc(N3CCNCC3)c(F)cc2c1=O [CIPROFLOXACIN]    0.01
CC(C)CCO[C@@H]1C=CC(=O)[C@@H](Cn2cc(-c3ccccn3)nn2)O1    6.25
CC(C)CCO[C@@H]1C=CC(=O)[C@@H](Cn2cc(CCBr)nn2)O1    50
CCCCCCCCc1cnnn1C[C@H]1O[C@H](OCCC(C)C)C=CC1=O    50

Q: Report MIC for `CC(C)CO[C@@H]1C=CC(=O)[C@@H](Cn2cc(CCCCl)nn2)O1` please.
Ans: 50

Q: Given the entry COc1cccc(OC)c1C(=O)N[C@@H]1C(=O)N2[C@@H]1SC(C)(C)[C@@H]2C(=O)O [METHICILLIN] , report its measured MIC.
Ans: 6.25

Q: Fill blank: measured MIC of the compound `CC(C)CCO[C@@H]1C=CC(=O)[C@@H](Cn2cc(-c3ccccc3)nn2)O1` is ____.
Ans: 3.12

Q: Please report the recorded MIC for `CC(C)CCO[C@@H]1C=CC(=O)[C@@H](Cn2cc(C=O)nn2)O1` .
Ans: 50

Q: Requested field: MIC. Item: `CCCCCc1cn(C[C@H]2O[C@H](OCCC(C)C)C=CC2=O)nn1`
Ans: 3.12

Q: Entry under review: `CC(C)CCO[C@@H]1C=CC(=O)[C@@H](Cn2cc(C3CCCC3)nn2)O1` . Reported MIC?
Ans: 50

###

Test system: Aspergillus fumigatus
ASSAY_PROTOCOL: Antimicrobial activity against Aspergillus fumigatus after 72 hrs by microbroth dilution method
Type: functional
Listing of recorded MIC by entry.
Number only, in µg/mL; omit the unit.

CC(C)CCO[C@@H]1C=CC(=O)[C@@H](Cn2cc(CCCCOC(=O)C(C)(C)C)nn2)O1    25
Clc1ccc(COC(Cn2ccnc2)c2ccc(Cl)cc2Cl)c(Cl)c1 (configuration not stated) [MICONAZOLE]    12.5

Q: Report MIC for `CC(C)CCO[C@@H]1C=CC(=O)[C@@H](Cn2cc(-c3ccccc3)nn2)O1` please.
Ans: 50

Q: Please look up its MIC: `CC(C)CCO[C@@H]1C=CC(=O)[C@@H](Cn2cc(CCBr)nn2)O1`
Ans: 50

Q: What value of MIC has been recorded for this entry: `CC(C)CCO[C@@H]1C=CC(=O)[C@@H](Cn2cc(CCCCl)nn2)O1`
Ans: 50

###

System: Staphylococcus aureus
ASSAY_PROTOCOL: Antimicrobial activity against vancomycin-resistant Staphylococcus aureus after 24 hrs by microbroth dilution method
Format: functional
Criterion: MIC strictly under 6 µg/mL. Met: y. Not met: n.

Q: For this compound, is MIC lower than 6 µg/mL? `CC(C)CCO[C@@H]1C=CC(=O)[C@@H](Cn2cc(-c3ccc(F)cc3)nn2)O1`
Ans: y

Q: Threshold test, MIC < 6 µg/mL: `CC(C)CCO[C@@H]1C=CC(=O)[C@@H](Cn2cc(C(C)(C)C)nn2)O1`
Ans: n

Q: MIC under 6 µg/mL? Item: `CC(C)CCO[C@@H]1C=CC(=O)[C@@H](Cn2ccnn2)O1`
Ans: n

Q: Dear reviewer, please state whether `CCCCCCCCc1cn(C[C@H]2O[C@H](OCCCC)C=CC2=O)nn1` has MIC strictly beneath 6 µg/mL.
Ans: n

Q: Consider the compound `CC(C)CCO[C@@H]1C=CC(=O)[C@@H](Cn2cc(CCCCOC(=O)C(C)(C)C)nn2)O1` . Is its MIC strictly less than 6 µg/mL?
Ans: n

Q: Report whether reported MIC is lower than 6 µg/mL (strictly) for `CCCCCCCCc1cn(C[C@H]2O[C@H](OCCC(C)C)C=CC2=O)nn1`
Ans: y

Q: Criterion: MIC strictly below 6 µg/mL. Is it met by `CC(C)CCO[C@@H]1C=CC(=O)[C@@H](Cn2cc(C=O)nn2)O1` ?
Ans: n

Q: Hello, I'm reviewing records and need to know if MIC of `CC(C)CCO[C@@H]1C=CC(=O)[C@@H](Cn2cc(CCBr)nn2)O1` is below 6 µg/mL. Could you check?
Ans: n

Q: Answer whether the compound `CC(C)CCO[C@@H]1C=CC(=O)[C@@H](Cn2cc(-c3ccccn3)nn2)O1` has MIC strictly less than 6 µg/mL
Ans: n

Q: Dear reviewer, please state whether CC1(C)S[C@@H]2[C@H](NC(=O)[C@H](N)c3ccccc3)C(=O)N2[C@H]1C(=O)O [AMPICILLIN] has MIC strictly beneath 6 µg/mL.
Ans: y

###

System: Klebsiella pneumoniae
ASSAY_PROTOCOL: Antimicrobial activity against Klebsiella pneumoniae ATCC 27736 after 24 hrs by microbroth dilution method
Type: functional
TEST_CONDITIONS: ATCC 27736, 24 h
ENDPOINT: MIC
A bare number is not enough; add the unit after it.

Below, 2 compounds whose answers are already recorded.
CC(C)CCO[C@@H]1C=CC(=O)[C@@H](Cn2cc(CCCCOC(=O)C(C)(C)C)nn2)O1    12.5 µg/mL
CC(C)CCO[C@@H]1C=CC(=O)[C@@H](Cn2cc(COCC34CC5CC(CC(C5)C3)C4)nn2)O1    0.78 µg/mL

Would you kindly look at the next entry?
Q: // lookup MIC | system=Klebsiella pneumoniae | key= `CCCCCCCCc1cn(C[C@H]2O[C@H](OCCC(C)C)C=CC2=O)nn1`
Ans: 0.78 µg/mL

Just for reference, ChEMBL document CHEMBL3286335 is where these values come from.
